test: qHTS for differential inhibitors of proliferation of Plasmodium falciparum line 3D7 (AID 1876); details: P. falciparum 3D7 proliferation inhibition; series mostly up to 28.7 µM
Inconclusive results are not listed. Calls of active or inactive are those of the source. The call rests on the fitted dose curve; in most records, active means well fitted curve in the direction sought with a large enough effect; inconclusive means small, poorly fitted or top-dose-only effect, or another doubt; inactive means no such curve, though single readings can be large or run the other way.
Lab note: assign the record to one of active, inactive

Could you please tell me the result logged for CC(C)N(CCC(C(N)=O)(c1ccccc1)c1ccccn1)C(C)C (centres undefined) in this assay?
inactive

Could you please tell me the result logged for CC(=O)N1CCN(c2ccc(OC[C@H]3CO[C@](Cn4ccnc4)(c4ccc(Cl)cc4Cl)O3)cc2)CC1 in this assay?
active

Further cases:
Could you please tell me the result logged for CC(C)c1cccc(C(C)C)c1O in this assay?
inactive

Could you please tell me the result logged for CCC1(c2ccc(N)cc2)CCC(=O)NC1=O (centres undefined) in this assay?
inactive

Could you please tell me the result logged for C=C(C)[C@H]1CN[C@H](C(=O)O)[C@H]1CC(=O)O in this assay?
inactive

Could you please tell me the result logged for CC(NC(C)(C)C)C(=O)c1cccc(Cl)c1 (centres undefined) in this assay?
inactive

Could you please tell me the result logged for NCCc1ccc(O)cc1 in this assay?
inactive

Could you please tell me the result logged for O=P1(N(CCCl)CCCl)NCCCO1 (centres undefined) in this assay?
inactive

Could you please tell me the result logged for CN1C(=O)CCS(=O)(=O)C1c1ccc(Cl)cc1 (centres undefined) in this assay?
inactive
